Target: Collagenase ColG (Hathewaya histolytica)
Sequence (Q9X721 whole entry): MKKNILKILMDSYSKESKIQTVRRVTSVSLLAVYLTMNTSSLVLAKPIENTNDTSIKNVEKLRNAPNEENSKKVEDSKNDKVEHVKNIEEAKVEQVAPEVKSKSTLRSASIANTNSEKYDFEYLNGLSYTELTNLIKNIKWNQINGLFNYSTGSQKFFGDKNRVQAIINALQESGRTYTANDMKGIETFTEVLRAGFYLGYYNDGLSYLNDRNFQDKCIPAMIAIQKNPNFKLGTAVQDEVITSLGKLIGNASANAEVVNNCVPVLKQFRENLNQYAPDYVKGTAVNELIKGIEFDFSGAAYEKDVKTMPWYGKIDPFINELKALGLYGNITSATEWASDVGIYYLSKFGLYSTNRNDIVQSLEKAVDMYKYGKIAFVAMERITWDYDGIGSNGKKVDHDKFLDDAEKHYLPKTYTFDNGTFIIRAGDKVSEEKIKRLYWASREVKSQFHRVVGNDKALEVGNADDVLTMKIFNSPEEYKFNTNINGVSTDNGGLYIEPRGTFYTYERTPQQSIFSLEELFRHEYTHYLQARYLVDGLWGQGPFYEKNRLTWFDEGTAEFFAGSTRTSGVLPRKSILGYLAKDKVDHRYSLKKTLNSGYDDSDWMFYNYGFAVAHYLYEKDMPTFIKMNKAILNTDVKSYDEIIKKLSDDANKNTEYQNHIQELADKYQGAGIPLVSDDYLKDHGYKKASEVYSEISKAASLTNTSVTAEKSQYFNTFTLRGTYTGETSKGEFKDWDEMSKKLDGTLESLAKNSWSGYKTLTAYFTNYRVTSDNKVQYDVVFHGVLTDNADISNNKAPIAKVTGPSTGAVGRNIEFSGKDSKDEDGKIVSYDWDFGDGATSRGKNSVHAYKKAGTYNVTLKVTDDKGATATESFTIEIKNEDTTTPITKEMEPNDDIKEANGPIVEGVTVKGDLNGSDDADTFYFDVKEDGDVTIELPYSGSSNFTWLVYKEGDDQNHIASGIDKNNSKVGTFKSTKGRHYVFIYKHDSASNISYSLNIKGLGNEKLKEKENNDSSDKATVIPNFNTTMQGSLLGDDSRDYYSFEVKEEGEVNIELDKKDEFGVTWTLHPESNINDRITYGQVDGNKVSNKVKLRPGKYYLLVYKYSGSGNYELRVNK

MOLECULE	TARGET_OF_ASSAY	Ki
CC(NC(=O)C(Cc1ccccc1)NS(=O)(=O)c1ccc2ccccc2c1)C(=O)Nc1nnc(S)s1 (centres undefined)	Collagenase ColG (Hathewaya histolytica)	40 µM
CC(NC(=O)C(Cc1ccccc1)NS(=O)(=O)c1cccc2cccnc12)C(=O)Nc1nnc(S)s1 (centres undefined)	Collagenase ColG (Hathewaya histolytica)	36 µM
CC(NC(=O)C(Cc1ccccc1)NS(=O)(=O)c1ccc(F)cc1)C(=O)Nc1nnc(S)s1 (centres undefined)	Collagenase ColG (Hathewaya histolytica)	21 µM
CC(NC(=O)C(Cc1ccccc1)NS(=O)(=O)c1ccc(I)cc1)C(=O)Nc1nnc(S)s1 (centres undefined)	Collagenase ColG (Hathewaya histolytica)	14 µM
Cc1ccc(S(=O)(=O)NC(=O)NC(Cc2ccccc2)C(=O)NC(C)C(=O)Nc2nnc(S)s2)cc1 (centres undefined)	Collagenase ColG (Hathewaya histolytica)	4 µM
CC(=O)Nc1ccc(S(=O)(=O)NC(Cc2ccccc2)C(=O)NC(C)C(=O)Nc2nnc(S)s2)cc1 (centres undefined)	Collagenase ColG (Hathewaya histolytica)	16 µM
CC(NC(=O)C(Cc1ccccc1)NS(=O)(=O)Cc1ccccc1)C(=O)Nc1nnc(S)s1 (centres undefined)	Collagenase ColG (Hathewaya histolytica)	19 µM
CC(NC(=O)C(Cc1ccccc1)NS(=O)(=O)c1ccc(Br)cc1)C(=O)Nc1nnc(S)s1 (centres undefined)	Collagenase ColG (Hathewaya histolytica)	16 µM
COc1ccc(S(=O)(=O)NC(Cc2ccccc2)C(=O)NC(C)C(=O)Nc2nnc(S)s2)cc1 (centres undefined)	Collagenase ColG (Hathewaya histolytica)	14 µM

---

Target: Collagenase ColG (Hathewaya histolytica)
Sequence (Q9X721 whole entry): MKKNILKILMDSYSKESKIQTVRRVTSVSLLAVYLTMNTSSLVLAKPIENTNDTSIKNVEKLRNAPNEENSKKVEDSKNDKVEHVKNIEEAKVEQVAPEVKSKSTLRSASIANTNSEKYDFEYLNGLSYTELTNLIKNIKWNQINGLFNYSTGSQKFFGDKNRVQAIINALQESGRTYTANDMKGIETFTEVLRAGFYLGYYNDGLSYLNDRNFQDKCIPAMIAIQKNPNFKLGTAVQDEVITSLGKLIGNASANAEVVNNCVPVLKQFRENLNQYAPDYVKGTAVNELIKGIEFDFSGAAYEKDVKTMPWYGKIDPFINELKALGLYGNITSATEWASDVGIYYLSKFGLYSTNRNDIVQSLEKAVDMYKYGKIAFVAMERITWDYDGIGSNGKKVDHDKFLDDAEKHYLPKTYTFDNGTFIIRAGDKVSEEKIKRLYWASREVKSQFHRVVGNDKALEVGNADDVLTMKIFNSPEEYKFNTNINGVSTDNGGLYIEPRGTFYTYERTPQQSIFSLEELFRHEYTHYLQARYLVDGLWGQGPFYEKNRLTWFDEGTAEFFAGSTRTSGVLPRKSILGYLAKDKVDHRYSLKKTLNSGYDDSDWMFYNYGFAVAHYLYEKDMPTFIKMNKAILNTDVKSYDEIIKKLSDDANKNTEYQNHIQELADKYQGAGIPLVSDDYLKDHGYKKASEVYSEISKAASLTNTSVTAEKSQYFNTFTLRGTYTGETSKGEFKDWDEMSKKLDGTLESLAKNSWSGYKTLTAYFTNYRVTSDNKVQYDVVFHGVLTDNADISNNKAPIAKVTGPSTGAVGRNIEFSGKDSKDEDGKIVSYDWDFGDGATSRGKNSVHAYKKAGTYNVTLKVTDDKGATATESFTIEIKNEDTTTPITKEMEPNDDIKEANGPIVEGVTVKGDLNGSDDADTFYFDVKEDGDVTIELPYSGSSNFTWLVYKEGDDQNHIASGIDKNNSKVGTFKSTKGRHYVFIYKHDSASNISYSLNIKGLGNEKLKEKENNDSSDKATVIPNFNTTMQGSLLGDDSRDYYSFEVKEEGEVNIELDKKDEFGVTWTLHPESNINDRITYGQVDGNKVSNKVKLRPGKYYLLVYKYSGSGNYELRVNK
RECORDED_METRIC: Ki (µM)

COMPOUND	UNIT_TAG	RESULT_VALUE
CC(NC(=O)C(Cc1ccccc1)NS(=O)(=O)c1cccc(C(F)(F)F)c1)C(=O)Nc1nnc(S)s1 (centres undefined)	µM	9
Cc1ccc(S(=O)(=O)NC(Cc2ccccc2)C(=O)NC(C)C(=O)Nc2nnc(S)s2)cc1 (centres undefined)	µM	15
CC(NC(=O)C(Cc1ccccc1)NS(=O)(=O)c1cc(Cl)ccc1Cl)C(=O)Nc1nnc(S)s1 (centres undefined)	µM	15
CC(NC(=O)C(Cc1ccccc1)NC(=O)NS(=O)(=O)c1ccc(Cl)cc1)C(=O)Nc1nnc(S)s1 (centres undefined)	µM	0.3

---

molecular target: Collagenase ColG (Hathewaya histolytica, UniProt Q9X721); assay: MMP Enzyme Inhibition Assay
pKi: −log10 of the molar value.
Tag: Satisfied if measured pKi is not below 5, Not satisfied if it is.

COMPOUND	TARGET_OF_ASSAY	QUALITATIVE_LABEL
Cc1cc(C)c(S(=O)(=O)NC(Cc2ccccc2)C(=O)NC(C)C(=O)Nc2nnc(S)s2)c(C)c1 (stereo not drawn)	Collagenase ColG (Hathewaya histolytica, UniProt Q9X721)	Not satisfied
CC(NC(=O)C(Cc1ccccc1)NS(=O)(=O)c1cccc2c(N(C)C)cccc12)C(=O)Nc1nnc(S)s1 (stereo not drawn)	Collagenase ColG (Hathewaya histolytica, UniProt Q9X721)	Not satisfied
CC(NC(=O)C(Cc1ccccc1)NC(=O)NS(=O)(=O)c1ccc(F)cc1)C(=O)Nc1nnc(S)s1 (stereo not drawn)	Collagenase ColG (Hathewaya histolytica, UniProt Q9X721)	Satisfied
CC(NC(=O)C(Cc1ccccc1)NS(=O)(=O)CC12CCC(CC1=O)C2(C)C)C(=O)Nc1nnc(S)s1 (stereo not drawn)	Collagenase ColG (Hathewaya histolytica, UniProt Q9X721)	Not satisfied
CC(NC(=O)C(Cc1ccccc1)NS(=O)(=O)c1c(F)c(F)c(F)c(F)c1F)C(=O)Nc1nnc(S)s1 (stereo not drawn)	Collagenase ColG (Hathewaya histolytica, UniProt Q9X721)	Satisfied
CC(NC(=O)C(Cc1ccccc1)NC(=O)NS(=O)(=O)c1ccccc1)C(=O)Nc1nnc(S)s1 (stereo not drawn)	Collagenase ColG (Hathewaya histolytica, UniProt Q9X721)	Satisfied

Where these numbers come from: BindingDB's records for doi:10.1016/S0960-894X(02)00564-4
